# procedure-text: NCI Yeast Anticancer Drug Screen. Data for the sgs1 mgt1 strain (AID 161);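 also: 0% = growth of cultures given vehicle only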
# condition-set: S. cerevisiae sgs1 mgt1 strain, at 50.0 µM, active compounds read high
This is part of a sample that, as a whole, favours compounds with a hit. Of some 79,000 tested, about 15% had one in any assay.
Provide the recorded growth inhibition for the entries that follow.
Answers are plain numbers, in %.

Please give growth inhibition for each item listed below.
1. Cn1ncc2c(NCc3ccccc3)nc(Cl)nc21
2. O=C(O)CCCCCCCCC(=O)O
3. Nc1cccc2nsnc12
4. CC(C)(c1ccccc1)[Si](c1ccccc1)(c1ccccc1)c1ccccc1
5. O=C(O)CNCc1ccc2c(c1)OCCO2
6. COC(=O)O[C@H]1CC[C@@]2(C)C(=CC[C@H]3[C@@H]4CC[C@H]([C@H](C)CCCC(C)C)[C@@]4(C)CC[C@@H]32)C1
7. O=C(N/N=C\c1ccc2c(c1)CCC2)c1cccc2ccccc12

1. 16.4
2. 7.9
3. -42.2
4. 9.95
5. -10.4
6. -5.6
7. -11.9

Please give growth inhibition for each item listed below.
1. Cc1ccc(S(=O)(=O)N2CCC2c2ccccc2)cc1 (stereo not drawn)
2. COC(=O)C(C)OC(=O)OCC(C)C (stereo not drawn)

1. -17.9
2. 0.15

Please give growth inhibition for each item listed below.
1. OCC(O)C(O)C(O)C(c1ccc(Cl)cc1)c1ccc(Cl)cc1 (stereo not drawn)
2. C=C(C)C1Cc2c(cc(OC)c3c(=O)c4cccc(O)c4oc23)O1 (stereo not drawn)
3. CCCCC1(CC)COC2(CCCCC2)OC1
4. CCOC(=O)NC(=O)c1cn(CC(=O)NCC(=O)NCC(=O)NCCCN2CCN(CCCNC(=O)CNC(=O)CNC(=O)Cn3cc(C(=O)NC(=O)OCC)c(=O)[nH]c3=O)CC2)c(=O)[nH]c1=O
5. Nc1nc(Cl)cc(NCC(O)CO)n1 (stereo not drawn)
6. O=c1[nH]c2ccc([N+](=O)[O-])cc2nc1/C=C(\O)c1ccccc1
7. O=C(Oc1ccccc1)N1CCCSC1=S
8. CCCCCC(=O)OCCCCCO

1. -23
2. -1.95
3. 13.3
4. -6.85
5. -1.45
6. -24.4
7. 5.35
8. 21.5
